- Test system: K4 kissing-loop RNA reporter;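 note: bound reporter read as fluorescence of individual clusters on recovered sequencing chips by microscopy, with normalized cluster intensities fitted with a binding model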
- EXPERIMENT NOTES: apparent KD of K4 kissing-loop reporter; higher = weaker reporter binding
- PARTICULARS: Eterna round: R107; input ligand: theophylline 20 uM
REPORTED ENDPOINT: apparent KD of K4 kissing-loop reporter (nM)
Respond with the bare value in nM.

QUERY: apparent KD of K4 kissing-loop reporter of ACGUCUCGUUAAAUCGUGGUUUCGAUCGAUACCAGUAGCGAGAGUUACCCUUGGCAGCGAAAUGAGUGAUGUUCAUGAAAGAAGA [KL-XTheoA9] on K4 kissing-loop RNA reporter?
RESULT: 130

QUERY: apparent KD of K4 kissing-loop reporter of AUGGUUGUCGUAGGAUAUGUAGGAUAUUCCUAUAGCAGUGAUGUUGCUAAUAUCAAUGGAAGAAGGACAGAAGGACGAUAACCAC [KL-SSFMN-B3 #analogue #DoubleAptamer] on K4 kissing-loop RNA reporter?
RESULT: 118

QUERY: apparent KD of K4 kissing-loop reporter of AUUAAUAACUGAGGAUAUCGUUUUACUGUAGUGAUGUUACAGAAAAUUCACAUUAUAAUUUCUAUUCGAGAAGGCAGAAUAAUUA [JR_ExcFMNB_Sub014] on K4 kissing-loop RNA reporter?
RESULT: 71.9

QUERY: apparent KD of K4 kissing-loop reporter of UCGGACCCUGGAGGAUAUGAGUCGAGUGAUGUUCGGCGGUCCAUGCCGGUGCGGCGUUAUGCCCUUUUAGAAGGCCAGGGUCCGA [#2 Exclusion - FMN B Attempt #11 (HarryS)] on K4 kissing-loop RNA reporter?
RESULT: 207

QUERY: apparent KD of K4 kissing-loop reporter of AAGCAGUCACGCGAAGCCAUCGAAGAUGGUCGAGGACCGGUACGGCCGCCACUCGGAGUGAUGUUCCGAAGACUGCAAAAUAAAA on K4 kissing-loop RNA reporter?
RESULT: 314

QUERY: apparent KD of K4 kissing-loop reporter of AACUGGGUUCGUGAUACCAGCUCACACAUGAGUGAUGUUCAUGUAGUGGGCAAAAUGUGGAGCCCUUGGCAGCACUGUGACCACG [XTheo-B2] on K4 kissing-loop RNA reporter?
RESULT: 73.3
